Test system: barnyardgrass (Echinochloa crus-galli)
Test: Test G Post-Emergence Protocol
Assay type: in vivo
Conditions: Echinochloa crus-galli, post-emergence, 312 h, 250 g ai/ha, evaluated after 13 days, read-out: damage to plant, Barnyardgrass (100=total damage to plant; 0=no damage to plant)
# if value of pest or weed control at 250 g/ha reaches 70%, tag Satisfied; if it stays below, tag Not satisfied

Record excerpt, results attached:
>  <compound>
COc1cc([C@@H]2CN(C)C(=O)[C@H]2C(=O)Nc2cccc(F)c2F)ccn1 (racemic)

>  <subject_of_test>
barnyardgrass (Echinochloa crus-galli)

>  <label_value>
Satisfied

$$$$
>  <compound>
Cc1cc(NC(=O)[C@@H]2C(=O)N(C)C[C@H]2c2ccc(C(F)(F)F)cc2)sn1 (racemic)

>  <subject_of_test>
barnyardgrass (Echinochloa crus-galli)

>  <label_value>
Not satisfied

$$$$
>  <compound>
CN1C[C@@H](c2ccc(C(F)(F)F)cc2)[C@H](C(=O)Nc2cc(C(F)(F)F)[nH]n2)C1=O (racemic)

>  <subject_of_test>
barnyardgrass (Echinochloa crus-galli)

>  <label_value>
Not satisfied

$$$$

Prompt: Can COC(=O)c1cc([C@H]2CN(C)C(=O)[C@@H]2C(=O)Nc2ccccc2F)ccc1Cl (racemic) be said to have pest or weed control at 250 g/ha at or above 70%?
Completion: Not satisfied

Prompt: Try this compound too: CN1C[C@@H](c2ccc(C(F)(F)F)cc2)[C@H](C(=O)Nc2ccc(Cl)nn2)C1=O (racemic)
Completion: Not satisfied

Prompt: Try the compound Cc1ccc([C@H]2CN(C)C(=O)[C@@H]2C(=O)Nc2ccc(F)nc2F)cc1
Completion: Satisfied

###

Test system: rice (Oryra sativa)
Experiment: Test B flooded paddy test
Type: in vivo
Conditions: Flood, 250 g ai/ha; 0 to 100 scale where 0 is no effect and 100 is complete control; 13 to 15 d
outcome_measure: Plant response rating, Rice
One number for each entry.

Use the examples below as a reference point.
>  <compound>
C=CCN1CC(c2cccc(C(F)(F)F)c2)C(C(=O)Nc2cccc(F)c2F)C1=O (stereo not shown) [Compound 606]

>  <Plant response rating, Rice>
0

$$$$
>  <compound>
CN1CC(c2cccc(OC(F)(F)C(F)F)c2)C(C(=O)Nc2ccc(F)cc2F)C1=O (stereo not shown) [Compound 393]

>  <Plant response rating, Rice>
0

$$$$
>  <compound>
CN1CC(c2ccc(C(F)(F)F)cc2)C(C(=S)Nc2ccccc2F)C1=O (stereo not shown) [Compound 450]

>  <Plant response rating, Rice>
0

$$$$
>  <compound>
O=C1NCC(c2ccc(Br)cc2)C1C(=O)Nc1ccc(F)cc1F (stereo not shown) [Compound 447]

>  <Plant response rating, Rice>
0

$$$$

Provide reported Plant response rating, Rice for each item, in the same order as listed.
1. Cc1cc(C2CN(C)C(=O)C2C(=O)Nc2ccccc2S(C)(=O)=O)ccc1F (stereo not shown) [Compound 405]
2. CCCOc1cccc(C2CNC(=O)C2C(=O)Nc2cccc(F)c2F)c1 (racemic) [Compound 380]
3. Cc1cc(C2CN(C)C(=O)C2C(=O)Nc2ccc(F)cc2F)ccc1F (stereo not shown) [Compound 404]
4. CC(C)Oc1cccc(C2CN(C)C(=O)C2C(=O)Nc2ccccc2C(F)(F)F)c1 (stereo not shown) [Compound 652]
5. CN1CC(c2ccc3c(c2)OC(F)(F)O3)C(C(=O)Nc2ccccc2F)C1=O (stereo not shown) [Compound 441]
6. Cc1c(F)ccc(NC(=O)C2C(=O)NCC2c2cccc(OC(F)(F)C(F)F)c2)c1F (stereo not shown) [Compound 460]

Completion:
[0, 0, 30, 0, 0, 0]

Give one value of Plant response rating, Rice per listed compound.
1. Cc1cccc(C2CN(C)C(=O)C2C(=O)Nc2cccc(F)c2F)c1 (stereo not shown) [Compound 667]
2. Cc1ccc(C2CNC(=O)C2C(=O)Nc2ccccc2F)cc1C(F)(F)F (racemic) [Compound 678]
3. CC(C)Oc1cccc(C2CNC(=O)C2C(=O)Nc2ccccc2F)c1 (stereo not shown) [Compound 552]

Completion:
1: 10; 2: 10; 3: 10

###

Tested on: giant foxtail (Setaria faberi)
Test: Test G Post-Emergence Protocol
Format: in vivo
Details: Setaria faberi, post-emergence, 312 h, 15.625 g ai/ha, evaluated after 13 days (100=total damage to plant; 0=no damage to plant), read-out: Foxtail, Giant damage rating
outcome_measure: pest or weed control at 15.625 g/ha (%)
One number for each entry, in %.

>  <compound>
Cc1c(F)ccc(NC(=O)[C@@H]2C(=O)N(C)C[C@H]2c2ccc(C(F)(F)F)cc2)c1Cl (racemic)

>  <observed>
0

$$$$
>  <compound>
CN1C[C@H](c2ccc(C(F)(F)F)cc2)[C@@H](C(=O)Nc2cccnc2S(C)(=O)=O)C1=O (racemic)

>  <observed>
0

$$$$

Prompt: Please give the measured pest or weed control at 15.625 g/ha for this compound: CN1C[C@@H](c2ccc(C(F)(F)F)cc2)[C@H](C(=O)Nc2ccnc(C(F)(F)F)c2)C1=O (racemic)
Completion: 0

###

Can you tell me Plant response rating, Soybean for the items I'm about to list?
System: soybean (Glycine max)
Assay: Test C preemergence
Format: in vivo
Settings: 125 g ai/ha, scale 0 to 100, 0 no effect, 100 complete control
Give bare numbers.

// known answers, use as guide
>  <molecule>
CN1CC(c2cccc(C(F)(F)F)c2)C(C)(C(=O)Nc2ccccc2F)C1=O (stereo not shown) [Compound 428]

>  <subject_of_test>
soybean (Glycine max)

>  <Plant response rating, Soybean>
0

$$$$
>  <molecule>
CN1CC(c2ccc(C(C)(F)F)cc2)C(C(=O)Nc2ccccc2F)C1=O (stereo not shown) [Compound 691]

>  <subject_of_test>
soybean (Glycine max)

>  <Plant response rating, Soybean>
15

$$$$
>  <molecule>
CN1CC(c2cccc(C(F)(F)F)c2)C(C(=O)Nc2ccccc2S(C)(=O)=O)C1=O (stereo not shown) [Compound 637]

>  <subject_of_test>
soybean (Glycine max)

>  <Plant response rating, Soybean>
0

$$$$

Now examine the next entry.
Prompt: Entry under review: CN1CC(c2ccc(C(F)(F)F)cc2)C(C(=O)Nc2ccccc2S(C)(=O)=O)C1=O (stereo not shown) [Compound 624] . Reported Plant response rating, Soybean?
Completion: 15

###

Tested on: ivy-leaved morning glory (Ipomoea hederacea)
Test: Test G Post-Emergence Protocol
Format: in vivo
Details: Ipomoea, post-emergence, 312 h, 62.5 g ai/ha, evaluated after 13 days, read-out: Morningglory, Ivy-leaved damage rating (100=total damage to plant; 0=no damage to plant)
outcome_measure: pest or weed control at 62.5 g/ha (%)
One number for each entry, in %.

Parameter requested: pest or weed control at 62.5 g/ha. Apply to each item below.
1. COc1ccc(OC)c([C@H]2CN(C)C(=O)[C@@H]2C(=O)Nc2ccccc2F)c1 (racemic)
2. CN1C[C@@H](c2ccc(C(F)(F)F)cc2)[C@H](C(=O)Nc2cncc(Cl)n2)C1=O (racemic)
3. Cc1cccc(NC(=O)[C@H]2C(=O)N(C)C[C@@H]2c2ccc(C(F)(F)F)cc2)n1 (racemic)
4. Cc1cc([C@@H]2CN(C)C(=O)[C@H]2C(=O)Nc2cccc(F)c2F)cnc1Cl (racemic)

Completion:
1: 0; 2: 0; 3: 10; 4: 0

###

Could you please report measured pest or weed control at 125 g/ha for the items listed next?
Tested on: Kochia (Kochia scoparia)
Experiment: Test A preemergence
Format: in vivo
Details: Bassia scoparia, pre-emergence, 240 h, 125 g ai/ha, preemergence; 0 to 100 scale where 0 is no effect and 100 is complete control; read-out: Kochia plant response rating
Answers are plain numbers, in %.

>  <molecule_smiles>
CN1C[C@H](c2cccc(C3CC3)c2)[C@@H](C(=O)Nc2ccccc2S(C)(=O)=O)C1=O

>  <subject_of_test>
Kochia (Kochia scoparia)

>  <measurement_units>
%

>  <pest or weed control at 125 g/ha>
50

$$$$
>  <molecule_smiles>
Cc1cc(F)cc([C@H]2CN(C)C(=O)[C@@H]2C(=O)Nc2cccc(F)c2F)c1

>  <subject_of_test>
Kochia (Kochia scoparia)

>  <measurement_units>
%

>  <pest or weed control at 125 g/ha>
80

$$$$

For each of the items listed, what is its pest or weed control at 125 g/ha?
1. CN1C[C@H](c2cccc(F)c2)[C@@H](C(=O)Nc2ccccc2C(F)(F)F)C1=O
2. CC(C)c1cccc([C@H]2CN(C)C(=O)[C@@H]2C(=O)Nc2ccccc2F)c1
3. Cc1cc(F)cc([C@H]2CN(C)C(=O)[C@@H]2C(=O)Nc2ccccc2F)c1
4. COc1ccc([C@H]2CN(C)C(=O)[C@@H]2C(=O)Nc2cccc(F)c2F)cc1OC

Completion:
[0, 70, 30, 40]

Quick request: pest or weed control at 125 g/ha for each listed item, please.
1. CN1CC[C@H](c2cccc(Cl)c2)[C@@H](C(=O)Nc2cccc(F)c2F)C1=O
2. COc1cc(C(F)(F)F)ccc1[C@H]1CN(C)C(=O)[C@@H]1C(=O)Nc1cccc(F)c1F

Completion:
[0, 50]

The origin of these recorded values is patent US12077503B2.
